Sourced from ChEMBL document CHEMBL4706692

Assay explanation: Selectivity index, ratio of IC50 for cytotoxicity against human THLE-2 cells to IC50 for antiproliferative activity against human KG-1 cells
Entries and their Ratio IC50

Compound	Measurement qualifier	Ratio IC50
O=C1CCC(N2Cc3cc(CNC(=O)C(=O)c4ccccc4)ccc3C2=O)C(=O)N1 (centres undefined)	=	22
O=C(Cc1ccccc1)NCc1ccc2c(c1)CN(C1CCC(=O)NC1=O)C2=O (centres undefined)	=	6
O=C1CCC(N2Cc3cc(CNC(=O)Nc4ccccc4)ccc3C2=O)C(=O)N1 (centres undefined)	=	4
O=C1CCC(N2Cc3cc(CNC(=O)C(F)(F)c4ccccc4)ccc3C2=O)C(=O)N1 (centres undefined)	>	100

----------
Assay explanation: Terminal half life in iv dosed acute myeloid leukemia patient
Format: ADME, organism-based
Run parameters: human, in vivo, read-out: beta t1/2 (converted)
Reported endpoint: half-life

Molecule	Measured result
O=C1CCC(N2Cc3cc(CNC(=O)C(F)(F)c4ccc(Cl)cc4)ccc3C2=O)C(=O)N1 (stereo unspecified)	9.3 h

----------
Assay system: Cytochrome P450 2C19 (Homo sapiens, UniProt P33261)
Sequence (P33261 whole entry): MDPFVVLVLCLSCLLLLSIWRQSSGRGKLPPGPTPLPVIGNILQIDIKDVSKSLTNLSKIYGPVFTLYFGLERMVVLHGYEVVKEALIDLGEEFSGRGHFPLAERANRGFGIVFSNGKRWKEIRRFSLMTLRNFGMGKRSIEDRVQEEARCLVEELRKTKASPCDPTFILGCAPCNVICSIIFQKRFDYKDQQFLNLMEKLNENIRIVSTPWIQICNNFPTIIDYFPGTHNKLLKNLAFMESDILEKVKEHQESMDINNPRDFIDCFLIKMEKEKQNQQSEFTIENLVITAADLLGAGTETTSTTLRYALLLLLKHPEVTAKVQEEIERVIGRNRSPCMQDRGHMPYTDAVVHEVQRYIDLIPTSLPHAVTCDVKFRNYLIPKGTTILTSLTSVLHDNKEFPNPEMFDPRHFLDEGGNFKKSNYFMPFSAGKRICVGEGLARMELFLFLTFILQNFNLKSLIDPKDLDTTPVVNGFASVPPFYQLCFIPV
pIC50: −log10 of the molar value.
Reported endpoint: pIC50

Compound	Measured result
O=C1CCC(N2Cc3cc(CNC(=O)C(F)(F)c4ccc(Cl)cc4)ccc3C2=O)C(=O)N1 (stereo unspecified)	5.82

----------
Test system: KG-1a
Assay explanation: Antiproliferative activity against human KG-1a cells assessed as reduction in cell viability incubated for 72 hrs by cell titer glo assay
Type: functional, cell-based
pIC50: −log10 of the molar value.
Reported endpoint: pIC50

Molecule	Assay system	Measured result
Cc1ccc(NC(=O)NCc2ccc3c(c2)CN(C2CCC(=O)NC2=O)C3=O)cc1Cl (stereo unspecified)	KG-1a	8.10

----------
# reported log10 of IC50; entries follow
Test system: KG-1
Assay explanation: Antiproliferative activity against human KG-1 cells assessed as reduction in cell viability incubated for 72 hrs by cell titer glo assay
Type: functional, cell-based
Run parameters: KG-1, 72 h
Reported endpoint: log10 of IC50 (log10 of the value in nM)

Compound	log10 of IC50
O=C1CCC(N2Cc3cc(CNC(=O)C(=O)c4ccccc4)ccc3C2=O)C(=O)N1 (configuration not stated)	0.95
O=C1CCC(N2Cc3cc(CNC(=O)Nc4ccccc4)ccc3C2=O)C(=O)N1 (configuration not stated)	1.18
Cc1ccc(NC(=O)NCc2ccc3c(c2)CN(C2CCC(=O)NC2=O)C3=O)cc1Cl (configuration not stated)	0.85
O=C(Cc1ccccc1)NCc1ccc2c(c1)CN(C1CCC(=O)NC1=O)C2=O (configuration not stated)	1.57
O=C1CCC(N2Cc3cc(CNC(=O)C(F)(F)c4ccccc4)ccc3C2=O)C(=O)N1 (configuration not stated)	1.99

----------
Assay explanation: Clearance in CD1 mouse at 2 mg/kg, iv administered as bolus dose
Format: ADME, organism-based
Run parameters: in vivo
Reported endpoint: clearance (mL/min/kg)

Compound	Measured result
O=C1CCC(N2Cc3cc(CNC(=O)C(F)(F)c4ccc(Cl)cc4)ccc3C2=O)C(=O)N1 (stereo unspecified)	67.9

----------
Tested on: Kasumi 1
Assay explanation: Antiproliferative activity against human Kasumi 1 cells assessed as reduction in cell viability incubated for 72 hrs by cell titer glo assay
Assay type: functional, cell-based
Run parameters: Kasumi 1, 72 h
pIC50: −log10 of the molar value.
Reported endpoint: pIC50

Molecule	Assay system	Measured result
Cc1ccc(NC(=O)NCc2ccc3c(c2)CN(C2CCC(=O)NC2=O)C3=O)cc1Cl (stereo unspecified)	Kasumi 1	8.00
